B1: Azoarcus group I ribozyme (parent)
chain: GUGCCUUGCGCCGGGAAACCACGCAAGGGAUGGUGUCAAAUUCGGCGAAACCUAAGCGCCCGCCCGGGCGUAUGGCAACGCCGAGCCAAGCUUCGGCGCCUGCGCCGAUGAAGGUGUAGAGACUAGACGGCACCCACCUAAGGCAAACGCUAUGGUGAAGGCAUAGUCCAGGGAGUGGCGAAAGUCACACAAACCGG

variants of: B1; assay: reverse-splicing fitness (ratio to wild type); higher = more active; in vitro selection; Mg2+ level not given
metric: reverse-splicing fitness
Keep it simple and answer with nothing but the number.

// solved cases for reverse-splicing fitness follow
[[record]]
mutation_spec = "C82U A111U A120C A145C C150U C169U U176C"
metric = "reverse-splicing fitness"
experimental_result = 0.0108

[[record]]
mutation_spec = "C82U A111G A145U C150A C169G"
metric = "reverse-splicing fitness"
experimental_result = 0.00745

[[record]]
mutation_spec = "C82G A111G A120U A145C C150A C169U U176A"
metric = "reverse-splicing fitness"
experimental_result = 0.00266

[[record]]
mutation_spec = "C82U A111C A145G C169A U176C"
metric = "reverse-splicing fitness"
experimental_result = 0.0298

[[record]]
mutation_spec = "C82A C150U C169G U176C"
metric = "reverse-splicing fitness"
experimental_result = 0.0175

[[record]]
mutation_spec = "C82G A120C A145C C169G U176A"
metric = "reverse-splicing fitness"
experimental_result = 0.0262

[[record]]
mutation_spec = "C82U A120G A145G C150G C169U"
metric = "reverse-splicing fitness"
experimental_result = 0.0101

[[record]]
mutation_spec = "C82A A111G A120G C150U C169G U176G"
metric = "reverse-splicing fitness"
experimental_result = 0.0061

[[record]]
mutation_spec = "C82G A111C A145C"
metric = "reverse-splicing fitness"
experimental_result = 0.29

[[record]]
mutation_spec = "C82G A145G C150U C169A"
metric = "reverse-splicing fitness"
experimental_result = 0.0118


If you can, please state the reported reverse-splicing fitness value of C82G A111G A120G C169U U176C .
0.0198

Now consider C82A A111G A120C C150U U176G and answer again.
0.01

Now consider C82G A111C A120G A145G C150G C169A and answer again.
0.009

Now consider C82G A111G A145G C150U C169G U176C and answer again.
0.0216

Now consider C82A A120G A145G C150A C169A U176G and answer again.
0.00558

Now consider C82U A111U A120G and answer again.
0.0168

Now consider C82A A111G A120G A145G C150A and answer again.
0.00972
